- procedureSummary: amyloid nucleation score (Sup35N fusion, yeast selection) (log enrichment); library NNK2; higher = more nucleation; inactive = no reads after selection;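 further: zero at mode of non-aggregating sequences after 7 days selection at 30°C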
readoutType: amyloid nucleation score
Output spec: single numeric token, no unit.

Before answering, review these 5 worked examples.
[[record]]
substance = "CGQRCPKC"
measuredvalue = 3.81

[[record]]
substance = "MRSSFGK"
measuredvalue = -0.086

[[record]]
substance = "SVYNWYIIPANCEQDLCM"
measuredvalue = 5.54

[[record]]
substance = "DIVIDRNMSLWDPFNIVPFE"
measuredvalue = -0.27

[[record]]
substance = "MCTGRFFSITSYGCKESSYL"
measuredvalue = 1.49


Please find the next substance below.
// query Read the entry ISYSVKPLYFVSRVRTVNLG and write its reported amyloid nucleation score.
// result 4.13

----------
- procedureSummary: amyloid nucleation score (Sup35N fusion, yeast selection) (log enrichment); library NNK3; higher = more nucleation; inactive = no reads after selection
readoutType: amyloid nucleation score

Recorded results for 10 substances are shown here.
[[record]]
substance = "ALASGVVVKLDICIVNNRMY"
readouttype = "amyloid nucleation score"
measuredvalue = 3.11

[[record]]
substance = "FLQAAYSGSRVAKCVSESSK"
readouttype = "amyloid nucleation score"
measuredvalue = "inactive"

[[record]]
substance = "IVSWLVRMVSWGVCRK"
readouttype = "amyloid nucleation score"
measuredvalue = "inactive"

[[record]]
substance = "ISCIGPFCSTIPLIKLNLIE"
readouttype = "amyloid nucleation score"
measuredvalue = 1.3

[[record]]
substance = "GMAWLVGWLGLRLLTYFGYR"
readouttype = "amyloid nucleation score"
measuredvalue = "inactive"

[[record]]
substance = "FGNLLVLSYDEDCNAATWVR"
readouttype = "amyloid nucleation score"
measuredvalue = "inactive"

[[record]]
substance = "CSLVSYSSLLGTCVDGIRDR"
readouttype = "amyloid nucleation score"
measuredvalue = "inactive"

[[record]]
substance = "NLLRNAVFIYCKHLNLFDAM"
readouttype = "amyloid nucleation score"
measuredvalue = 0.815

[[record]]
substance = "ETAYSASVRDT"
readouttype = "amyloid nucleation score"
measuredvalue = "inactive"

[[record]]
substance = "RPMDDKWLIGLFARNERDVP"
readouttype = "amyloid nucleation score"
measuredvalue = "inactive"


// query Supply recorded amyloid nucleation score for YCALLRNAITVV here.
// result inactive

// query // fetch amyloid nucleation score given entry PSCSRSVTMWKSRNLFIQLA
// result inactive

// query For YFATRDFAWVFENGSIEGAT , write its amyloid nucleation score.
// result inactive

// query # return recorded amyloid nucleation score for input YKFFGDLKVAYFGKVKIE
// result inactive

// query Please indicate amyloid nucleation score recorded for HNILFSDLGFYRSYYNADSM
// result inactive

----------
- procedureSummary: amyloid nucleation score (Sup35N fusion, yeast selection) (log enrichment); library NNK1; higher = more nucleation; inactive = no reads after selection
readoutType: amyloid nucleation score
Form rule: numeric answer, no unit written next to it.

[[record]]
substance = "GWCYSDVVMLPF"
measuredvalue = -0.141


// query Provide only the value of recorded amyloid nucleation score for RMPNGTWSIGRHLVD
// result 0.384

----------
- procedureSummary: amyloid nucleation score (Sup35N fusion, yeast selection) (log enrichment); library NNK2; higher = more nucleation; inactive = no reads after selection
Group membership follows amyloid nucleation score per the scheme lowest (below -0.05), middle (-0.05 to below 0.9), highest (0.9 or more)

Previously resolved entries follow.
[[record]]
substance = "GTRNVLIHAK"
classassignment = "lowest"

[[record]]
substance = "YTVWEEYHRAKSSGLT"
classassignment = "highest"


Now look at this entry.
// query Looking at AGWNLFLEGVYVW , which class would you pick?
// result lowest
